For each of the compounds below, state its Acid Output.
Tested on: gastric juice secretion
METHOD SUMMARY: Gastric juice secretion inhibition activity (pyloric ligature)
Format: in vivo, Wistar strain male rats
STUDY CONDITIONS: rats, 100 mg/kg p.o., pyloric ligature, 4 h; second part of Table 5
Hi! Could you send only the number? It should be in mcEq/100 g, unit omitted.

Name the reported Acid Output value associated with the compound `Cc1nc2sc3ccccc3n2c1COC(C)C.Cl` 57.6

Reported Acid Output for `Cc1nc2sc3ccccc3n2c1C(C)(C)O` : what is it? 169.9

# Acid Output lookup, item `Cc1nc2sc3cc(F)ccc3n2c1CO` 118.8

Please give the measured Acid Output for this compound: Cc1nc2sc3ccccc3n2c1C(C)O (centres unmarked) 30.8

Returns the measured Acid Output for the input compound. Input: `COc1ccc(COCc2c(C)nc3sc4ccccc4n23)cc1` 196.8

* * *

Tested on: gastric juice secretion
METHOD SUMMARY: Gastric juice secretion inhibition activity (pyloric ligature)
Type: in vivo, Wistar strain male rats
STUDY CONDITIONS: rats, 100 mg/kg p.o., pyloric ligature, 4 h
MEASURE: Pepsin Output (units/hr)
Form entry: value (units/hr) — number only.

What value of Pepsin Output on gastric juice secretion does `CCNC(=O)OCc1c(C)nc2sc3ccccc3n12` have? 136.0

Record lookup: for gastric juice secretion, what Pepsin Output belongs to Cc1nc2sc3ccccc3n2c1C(O)c1ccccc1 (stereo not drawn) ? 135.0

Notebook: pull reported Pepsin Output for gastric juice secretion, entry `COc1cc2c(sc3nc(C)c(CO)n32)c(OC)c1OC` 133.7

What Pepsin Output appears in the records for this compound with gastric juice secretion? `Cc1nc2sc3ccccc3n2c1CO` 59.6

State its Pepsin Output on gastric juice secretion: `COc1ccccc1C(=O)OCc1c(C)nc2sc3ccccc3n12` 186.6

Find Pepsin Output (gastric juice secretion) for the entry CCCC(O)c1c(C)nc2sc3ccccc3n12 (stereo not drawn) 139.6

Value wanted: Pepsin Output (gastric juice secretion) of entry `Cc1nc2sc3ccccc3n2c1CO.Cl` 58.4

Param readout= Pepsin Output; system= gastric juice secretion; entry= `COc1ccc2c(c1)sc1nc(C)c(CO)n12` ; returns value. 135.5

# returns recorded Pepsin Output (system: gastric juice secretion) for `COCc1c(C)nc2sc3ccccc3n12` 55.5

* * *

Tested on: aspirin-induced ulcer
METHOD SUMMARY: Antiulcer activity against aspirin-induced ulcer model
Type: in vivo, Wistar strain male rats
STUDY CONDITIONS: rats, 100 mg/kg p.o. 30 min before aspirin 200 mg/kg p.o.; stomach excised 7 h after aspirin
MEASURE: Aspirin Induced Ulcer Ulcer Index
Kindly format the answer as number then unit.

Sample `CCNC(=O)OCc1c(C)nc2sc3ccccc3n12` — what was its Aspirin Induced Ulcer Ulcer Index? 56.2 ± 6.8 mm^2

So what's the measured Aspirin Induced Ulcer Ulcer Index for this one? `COc1ccccc1C(=O)OCc1c(C)nc2sc3ccccc3n12` 45.3 ± 10.4 mm^2

For `COCc1c(C)nc2sc3ccccc3n12` , what is its reported Aspirin Induced Ulcer Ulcer Index? 49.9 ± 5.4 mm^2

* * *

Tested on: gastric juice secretion
METHOD SUMMARY: Gastric juice secretion inhibition activity (pyloric ligature)
Assay type: in vivo, Wistar strain male rats
STUDY CONDITIONS: rats, 100 mg/kg p.o., pyloric ligature, 4 h; second part of Table 5
What pH (gastric juice) was measured for each of the following?
Kindly provide the number alone.

Recorded pH (gastric juice) for Cc1nc2sc3ccccc3n2c1COC(C)C.Cl [Example 13] , please? 2.70

Fill in the blank: the reported pH (gastric juice) of COc1ccc(COCc2c(C)nc3sc4ccccc4n23)cc1 [Example 14] is ____. 1.42

Looking for the measured pH (gastric juice) of Cc1nc2sc3ccccc3n2c1C(C)O (centres unmarked) [Example 4] , can you help? 2.36

Fill blank: measured pH (gastric juice) of the compound Cc1nc2sc3ccccc3n2c1C(C)(C)O [Example 6] is ____. 1.24

// returns reported pH (gastric juice) for input Cc1nc2sc3cc(F)ccc3n2c1CO [Example 11] 1.58

* * *

System: gastric juice secretion
METHOD SUMMARY: Gastric juice secretion inhibition activity (pyloric ligature)
Format: in vivo, Wistar strain male rats
STUDY CONDITIONS: rats, 100 mg/kg p.o., pyloric ligature, 4 h; second part of Table 5
MEASURE: Volume (gastric juice) (ml/100 g)
Could you give me the number in ml/100 g? Just the number is fine.

Quick check: Volume (gastric juice) on gastric juice secretion, item `Cc1nc2sc3ccccc3n2c1C(C)(C)O` ? 1.90

Recorded Volume (gastric juice) for `Cc1nc2sc3ccccc3n2c1COC(C)C.Cl` with gastric juice secretion, please? 1.29

Short answer please: Volume (gastric juice), gastric juice secretion, entry Cc1nc2sc3ccccc3n2c1C(C)O (centres unmarked) 0.69

Provide the documented Volume (gastric juice) with gastric juice secretion as the system for `COc1ccc(COCc2c(C)nc3sc4ccccc4n23)cc1` 2.63

Record lookup: for gastric juice secretion, what Volume (gastric juice) belongs to `Cc1nc2sc3cc(F)ccc3n2c1CO` ? 1.40

* * *

Would you mind telling me the reported LD50 at 168 h of each entry?
METHOD SUMMARY: Acute toxicity
Format: in vivo
STUDY CONDITIONS: mouse, in vivo, po; mice, 7 days observation, Probit method
Write the value in mg/kg as a bare number.

For `Cc1nc2sc3ccccc3n2c1CO` , what is its reported LD50 at 168 h? 3590

If you can, please state the reported LD50 at 168 h value of `COCc1c(C)nc2sc3ccccc3n12` . 1770

Please look up its LD50 at 168 h: `Cc1nc2sc3ccccc3n2c1CO.Cl` 2130

* * *

Tested on: water-immersion stress ulcer
METHOD SUMMARY: Antiulcer activity against water-immersion stress ulcer
Type: in vivo, Wistar strain male rats
STUDY CONDITIONS: rats, 100 mg/kg p.o. 30 min before 6 h water immersion at 22°±1° C.
Note to self: Water-Immersion Stress Ulcer Ulcer Index under 10 mm^2 means MET, ties and anything higher get NOT MET.

Is Water-Immersion Stress Ulcer Ulcer Index strictly under 10 mm^2 for the entry COc1ccc2c(c1)sc1nc(C)c(CO)n12 [Example 9] ? MET

Field: below-cutoff. Rule: recorded Water-Immersion Stress Ulcer Ulcer Index strictly less than 10 mm^2. Subject: Cc1nc2sc3ccccc3n2c1C(O)c1ccccc1 (centres unmarked) [Example 7] NOT MET

Say whether its Water-Immersion Stress Ulcer Ulcer Index is strictly beneath 10 mm^2. Entry: Cc1nc2sc3ccccc3n2c1CO [Example 1] MET

Dear colleague, could you confirm whether Water-Immersion Stress Ulcer Ulcer Index of Cc1nc2sc3ccccc3n2c1C(C)(C)O [Example 6] falls below 10 mm^2? Thanks. NOT MET

A record lists COc1ccc(COCc2c(C)nc3sc4ccccc4n23)cc1 [Example 14] . Is its Water-Immersion Stress Ulcer Ulcer Index below 10 mm^2? MET

Take the molecule COCc1c(C)nc2sc3ccccc3n12 [Example 12] and say whether its Water-Immersion Stress Ulcer Ulcer Index is less than 10 mm^2. MET

# strict comparison: is reported Water-Immersion Stress Ulcer Ulcer Index < 10 mm^2? input = Cc1nc2sc3ccccc3n2c1CO.Cl [Example 2] MET

Here's an entry: Cc1nc2sc3ccccc3n2c1C(C)O (centres unmarked) [Example 4] . Is its Water-Immersion Stress Ulcer Ulcer Index below 10 mm^2? MET

Identify whether the molecule Cc1nc2sc3cc(F)ccc3n2c1CO [Example 11] records Water-Immersion Stress Ulcer Ulcer Index below 10 mm^2. NOT MET

Lab note: Water-Immersion Stress Ulcer Ulcer Index threshold 10 mm^2. Does this molecule come in strictly under it? CCNC(=O)OCc1c(C)nc2sc3ccccc3n12 [Example 20] MET

Quick check: Water-Immersion Stress Ulcer Ulcer Index of CCCC(O)c1c(C)nc2sc3ccccc3n12 (centres unmarked) [Example 5] under 10 mm^2? NOT MET

Hello, is Water-Immersion Stress Ulcer Ulcer Index of the following molecule strictly smaller than 10 mm^2? COc1cc2c(sc3nc(C)c(CO)n32)c(OC)c1OC [Example 10] MET

Here's an entry: CCc1nc2sc3ccccc3n2c1CO [Example 8] . Is its Water-Immersion Stress Ulcer Ulcer Index below 10 mm^2? MET

hey, is Water-Immersion Stress Ulcer Ulcer Index for COc1ccccc1C(=O)OCc1c(C)nc2sc3ccccc3n12 [Example 18] lower than 10 mm^2 or not? NOT MET

* * *

System: ddy strain male mice
METHOD SUMMARY: Acute toxicity
Type: in vivo
STUDY CONDITIONS: 1000 mg/kg p.o, 7 days observation
Answer each item with its documented Mortality (No. death/No. treated).

Item under review: Cc1nc2sc3ccccc3n2c1C(C)O (centres unmarked) . Reported Mortality (No. death/No. treated)? 0/5

Consider the compound `Cc1nc2sc3ccccc3n2c1COC(C)C.Cl` and give its measured Mortality (No. death/No. treated). 5/5

Entry under review: `COc1ccc(COCc2c(C)nc3sc4ccccc4n23)cc1` . Reported Mortality (No. death/No. treated)? 0/5

Query: Mortality (No. death/No. treated); subject: `Cc1nc2sc3ccccc3n2c1C(C)(C)O` 0/5

GET /values?readout=Mortality (No. death/No. treated)&item= `Cc1nc2sc3cc(F)ccc3n2c1CO` 0/5
